Provenance of the data: ChEMBL document CHEMBL1201862

IC50 values by entry
target entity: UniProt P49327
Sequence (P49327 whole entry, the tested form may be a part): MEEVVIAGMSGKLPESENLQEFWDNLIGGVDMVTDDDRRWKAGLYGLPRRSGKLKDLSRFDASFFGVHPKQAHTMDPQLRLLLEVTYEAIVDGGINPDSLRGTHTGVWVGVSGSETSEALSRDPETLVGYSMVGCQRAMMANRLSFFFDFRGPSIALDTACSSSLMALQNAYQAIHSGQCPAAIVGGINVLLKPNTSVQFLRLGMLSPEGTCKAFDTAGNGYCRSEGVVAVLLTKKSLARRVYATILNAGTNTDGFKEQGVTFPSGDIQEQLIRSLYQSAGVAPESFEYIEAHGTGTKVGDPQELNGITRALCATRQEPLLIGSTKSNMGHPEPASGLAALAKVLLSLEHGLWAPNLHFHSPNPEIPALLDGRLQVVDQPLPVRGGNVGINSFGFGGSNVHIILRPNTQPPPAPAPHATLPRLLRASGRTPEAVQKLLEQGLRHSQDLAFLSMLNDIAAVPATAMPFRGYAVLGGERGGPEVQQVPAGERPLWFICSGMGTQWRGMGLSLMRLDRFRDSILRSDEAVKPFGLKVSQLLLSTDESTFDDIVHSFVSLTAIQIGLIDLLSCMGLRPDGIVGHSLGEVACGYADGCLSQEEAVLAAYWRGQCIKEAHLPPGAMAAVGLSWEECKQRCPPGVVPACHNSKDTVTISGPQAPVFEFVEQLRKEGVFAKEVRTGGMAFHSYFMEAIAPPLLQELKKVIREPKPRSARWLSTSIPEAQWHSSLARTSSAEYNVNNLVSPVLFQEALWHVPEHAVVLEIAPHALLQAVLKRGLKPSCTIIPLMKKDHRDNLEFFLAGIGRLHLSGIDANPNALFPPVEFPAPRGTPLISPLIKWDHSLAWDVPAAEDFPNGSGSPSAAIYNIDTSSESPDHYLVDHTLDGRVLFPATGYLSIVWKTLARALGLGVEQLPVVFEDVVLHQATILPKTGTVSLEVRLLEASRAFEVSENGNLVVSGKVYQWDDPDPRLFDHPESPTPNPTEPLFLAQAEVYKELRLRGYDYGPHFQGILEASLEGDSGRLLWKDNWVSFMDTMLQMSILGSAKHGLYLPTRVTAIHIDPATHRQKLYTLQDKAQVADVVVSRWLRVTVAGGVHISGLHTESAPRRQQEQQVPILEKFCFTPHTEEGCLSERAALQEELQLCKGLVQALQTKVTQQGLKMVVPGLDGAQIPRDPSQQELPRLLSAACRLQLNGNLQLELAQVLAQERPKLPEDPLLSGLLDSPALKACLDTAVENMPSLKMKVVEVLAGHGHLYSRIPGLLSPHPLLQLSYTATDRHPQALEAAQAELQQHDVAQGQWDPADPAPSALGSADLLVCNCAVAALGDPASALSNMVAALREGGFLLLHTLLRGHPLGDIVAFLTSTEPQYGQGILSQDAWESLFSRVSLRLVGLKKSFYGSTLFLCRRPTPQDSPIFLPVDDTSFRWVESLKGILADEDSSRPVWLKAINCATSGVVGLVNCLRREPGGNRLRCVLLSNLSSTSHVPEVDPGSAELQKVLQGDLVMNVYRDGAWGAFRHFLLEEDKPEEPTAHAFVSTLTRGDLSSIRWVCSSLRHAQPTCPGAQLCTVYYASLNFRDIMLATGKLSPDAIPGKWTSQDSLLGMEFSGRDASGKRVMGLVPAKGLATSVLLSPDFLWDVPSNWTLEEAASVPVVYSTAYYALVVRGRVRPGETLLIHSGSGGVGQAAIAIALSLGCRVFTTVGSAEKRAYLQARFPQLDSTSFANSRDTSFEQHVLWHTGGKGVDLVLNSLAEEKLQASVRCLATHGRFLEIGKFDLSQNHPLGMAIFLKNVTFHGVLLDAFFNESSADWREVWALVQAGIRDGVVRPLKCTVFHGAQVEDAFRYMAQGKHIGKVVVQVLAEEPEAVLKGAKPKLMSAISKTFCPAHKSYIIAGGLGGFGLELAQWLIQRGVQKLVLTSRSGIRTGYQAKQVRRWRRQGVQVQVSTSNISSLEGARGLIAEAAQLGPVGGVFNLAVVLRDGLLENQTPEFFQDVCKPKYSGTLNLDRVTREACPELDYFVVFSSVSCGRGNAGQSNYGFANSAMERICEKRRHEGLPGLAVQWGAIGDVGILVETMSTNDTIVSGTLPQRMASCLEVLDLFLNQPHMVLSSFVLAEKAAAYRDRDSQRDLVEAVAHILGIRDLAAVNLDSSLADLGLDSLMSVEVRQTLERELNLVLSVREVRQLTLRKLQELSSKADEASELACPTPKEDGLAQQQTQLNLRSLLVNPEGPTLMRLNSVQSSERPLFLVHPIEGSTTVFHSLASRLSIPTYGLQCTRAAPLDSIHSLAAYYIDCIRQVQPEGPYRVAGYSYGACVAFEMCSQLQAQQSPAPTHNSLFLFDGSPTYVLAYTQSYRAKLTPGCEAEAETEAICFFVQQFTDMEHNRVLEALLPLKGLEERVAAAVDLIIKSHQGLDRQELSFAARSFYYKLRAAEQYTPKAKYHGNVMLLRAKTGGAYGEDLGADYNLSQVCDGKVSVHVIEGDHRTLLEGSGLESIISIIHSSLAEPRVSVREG
protocol details: FAS thioesterase domain inhibitors, dose response, biochemical, kinetic fluorescence intensity (AID 624326);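 further: rate of fluorescence rise from hydrolysis of a fluorogenic O-methyl fluorescein ester substrate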
Format: functional
Activity calls are given as the source filed them.

compound: CC(C)OC(=O)/C(C#N)=C/c1cn(C)c2ccccc12
IC50: 11.1 µM (active)
--
compound: O=C(Cn1cnc2cc([N+](=O)[O-])ccc2c1=O)Nc1ccc2c(c1)OCO2
IC50: 3.65 µM (active)
--
compound: COc1ccc2c(c1)C(=O)N1[C@H]3c4cc(Br)ccc4OC[C@@H]3[C@H](c3ccccc3)[C@]1(C)C(=O)N2
IC50: 18 µM (active)
--
compound: Cc1cccn2c(=O)c(/C=C(\C#N)C(=O)NCc3ccco3)c(N3CCCCCC3)nc12
IC50: 9.53 µM (active)
--
compound: Cc1cc(C(=O)N/N=C/c2cc([N+](=O)[O-])cc(C)c2O)[nH]n1
IC50: 11.8 µM (active)
--
compound: CC(CCc1ccccc1)NC(=O)c1cccc([N+](=O)[O-])c1 (stereo not given)
IC50: 7.07 µM (active)
--
compound: O=C(C[C@H]1C[C@H](C(=O)N2CCOCC2)[C@@]2(CCC3CCCC3)c3[nH]c4ccc(Cl)cc4c3CCN2C1=O)NCCc1ccccn1
IC50: 1.15 µM (active)
--
compound: O=C(Nc1ncc2c(n1)-c1ccccc1OC2)c1cccc([N+](=O)[O-])c1
IC50: 13 µM (active)
--
compound: COc1ccc(C(=O)Nn2c(SCc3cccc([N+](=O)[O-])c3)nc3ccccc3c2=O)cc1
IC50: 14.3 µM (active)
--
compound: O=C(CCN1C(=O)/C(=C/c2ccccc2Cl)SC1=S)Nc1ccccn1
IC50: 1.96 µM (active)

====

target entity: Voltage-dependent T-type calcium channel subunit alpha-1H (Homo sapiens);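 further: channel activity triggered by adding a high calcium stimulation buffer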
Format: functional
Activity calls are given as the source filed them.

smiles notation: Cc1cccc(N2CCN(C(=O)CCCSc3nc4ccccc4[nH]3)CC2)c1C
EC50: 5.23 µM (active)
--
smiles notation: Cc1ccc(-n2ncc(C(=O)NCc3ccc4c(c3)OCO4)c2NC(=O)c2ccco2)cc1C
EC50: 1.89 µM (active)
--
smiles notation: Cc1cccc(C)c1OCC(=O)Nc1cccc(NC(=O)c2ccco2)c1
EC50: 6.78 µM (active)
--
smiles notation: C=CCc1ccc(OCC(O)COc2ccc(CC=C)cc2OC)c(OC)c1
EC50: 6.12 µM (active)

====

target entity: Cytochrome P450 2C19 (Homo sapiens)
Sequence (P33261 whole entry): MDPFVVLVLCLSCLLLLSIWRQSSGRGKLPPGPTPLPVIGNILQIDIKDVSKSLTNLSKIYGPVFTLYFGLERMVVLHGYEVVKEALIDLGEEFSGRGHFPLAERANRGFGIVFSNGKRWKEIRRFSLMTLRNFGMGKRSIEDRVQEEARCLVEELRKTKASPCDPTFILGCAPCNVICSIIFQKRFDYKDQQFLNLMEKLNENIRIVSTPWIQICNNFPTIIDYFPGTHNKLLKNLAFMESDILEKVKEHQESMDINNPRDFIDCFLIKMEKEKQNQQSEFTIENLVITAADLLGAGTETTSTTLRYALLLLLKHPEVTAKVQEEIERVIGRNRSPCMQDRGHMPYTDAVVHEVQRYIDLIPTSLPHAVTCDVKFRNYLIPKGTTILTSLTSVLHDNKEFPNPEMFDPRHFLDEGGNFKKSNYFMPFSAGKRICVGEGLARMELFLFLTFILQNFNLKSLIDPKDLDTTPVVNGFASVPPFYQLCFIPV
protocol details: Cytochrome panel assay with activity outcomes. Panel member name: p450-cyp2c19 Compounds with AC50 equal or less than 10 uM are considered active
Type: functional
study conditions: read-out: AC50
Item-by-item account of AC50

molecule: CC1=C(C#N)C(NC(=O)C2CCCCC2)(C(F)(F)F)C(=O)N1 (stereo not drawn)
AC50: 28.2 µM (inconclusive)

molecule: NC(=NO)C1COc2ccccc2O1 (stereo not drawn)
AC50: 11.2 µM (inconclusive)

molecule: CCn1c(SCC(=O)OC)nnc1C1CCCCC1
AC50: 14.1 µM (inconclusive)

molecule: Cc1ccc(Cn2cccc(NC(=O)NCc3ccccc3)c2=O)cc1
AC50: 5.01 µM (inconclusive)

molecule: O=C(Nc1cccc(C(F)(F)F)c1)c1n[nH]c(Cn2cncn2)n1
AC50: 28.2 µM (inconclusive)

molecule: Cn1c[n+](C)cc1/C=N/O
AC50: 8.91 µM (inconclusive)

molecule: O=C(CCC(=O)Nc1ccccc1)NNC(=O)c1cccs1
AC50: 39.8 µM (inconclusive)

molecule: COc1ccc(S(=O)(=O)N2CCC[C@H]2C(=O)NC2=NCCS2)cc1
AC50: 35.5 µM (inconclusive)

molecule: CCN1CCN(S(=O)(=O)c2ccc(Cl)c(C(=O)Nc3nnc(CC(C)C)s3)c2)CC1
AC50: 39.8 µM (inconclusive)

molecule: Clc1ccccc1-c1cc(NCCN2CCOCC2)ncn1
AC50: 25.1 µM (inconclusive)

molecule: Clc1cncc(N2CCNCC2)n1
AC50: 6.31 µM (inconclusive)

molecule: COc1cccc(-c2nc(C[S+]([O-])CC(=O)N3CCC4(CC3)OCCO4)c(C)o2)c1 (stereo not drawn)
AC50: 14.1 µM (inconclusive)

molecule: CC(C)(O)C#Cc1ccc(C(=O)NCc2cccs2)s1
AC50: 17.8 µM (inconclusive)

molecule: CCOc1ccc(-c2cc(CCCC(=O)Nc3cc(OC)ccc3OC)no2)cc1
AC50: 3.16 µM (inconclusive)

molecule: CCc1c(C)nc(N)n2c(SCC(=O)Nc3ccccc3)nnc12
AC50: 22.4 µM (inconclusive)

molecule: COc1cccc(-c2nc(NC3CC3)c3ccccc3n2)c1
AC50: 10 µM (inconclusive)

molecule: CN(C)CCCn1c2c3ccccc3ccc2c2oc(=O)c3ccccc3c21
AC50: 0.794 µM (inconclusive)

molecule: COc1ncc2nc(-c3cn(C)c4ccccc34)c(=O)n(Cc3ccc(F)cc3)c2n1
AC50: 15.8 µM (inconclusive)

molecule: O=c1c(-c2ccc(F)cc2)nc2cnc(Oc3cccc(Cl)c3)nc2n1C[C@H]1CCCO1
AC50: 39.8 µM (inconclusive)

molecule: CCC/C=C(\CCC)C(NS(=O)(=O)CC12CCC(CC1=O)C2(C)C)c1ccc(C(=O)OC)cc1 (stereo not drawn)
AC50: 25.1 µM (inconclusive)

molecule: COc1ccc(Oc2ncc3nc(C)c(=O)n(C[C@H]4CCCO4)c3n2)cc1
AC50: 25.1 µM (inconclusive)

molecule: COC(=O)\C(C(C)=O)=C(/C=C/C=C/C=C/N(C)C)N(C)C
AC50: 14.1 µM (inconclusive)

molecule: O=C(C(Cc1ccccc1)N1C(=O)C2C3CCC(C3)C2C1=O)N1CCCCC1 (stereo not drawn)
AC50: 7.08 µM (inconclusive)
